# Tested on: CArah1-1 (DNA, aptamer, circular (5' and 3' ends ligated)) ATCCGATCGAGAGGATCCGGAAACATGCGAATTAATGAGGCCCCAAGATAGCTAAGAGAT
# assaySummary: MMC-GO-based binding assay, SYBR Gold fluorescence
# measurementConditions: 1x binding buffer (composition not stated); specificity test, concentration not given
endpointName: binding

Worked cases, answers included:
{"compound": "N[C@@H](Cc1ccccc1)C(=O)O", "binding": "no"}
{"compound": "N[C@@H](Cc1c[nH]c2ccccc12)C(=O)O", "binding": "no"}
{"compound": "Cc1cc2nc3c(=O)[nH]c(=O)nc-3n(C[C@H](O)[C@H](O)[C@H](O)CO)c2cc1C", "binding": "no"}
{"compound": "OC[C@H]1OC(O)[C@H](O)[C@@H](O)[C@@H]1O (stereo partly drawn)", "binding": "no"}
{"compound": "O=C1O[C@H]([C@@H](O)CO)C(O)=C1O", "binding": "no"}

Turning now to a further record.
Name the recorded binding of the item `Nc1ncnc2c1ncn2[C@@H]1O[C@H](COP(=O)(O)OP(=O)(O)OP(=O)(O)O)[C@@H](O)[C@H]1O` in your answer.
no
